# Tested on: Porcine epidemic diarrhea virus
# assay_notes: Antiviral activity against PEDV 85-7 infected in Marc145 cells assessed as inhibition of viral transcription after 24 hrs by qPCR analysis
# Format: functional, organism-based
# condition_notes: 85-7, MARC145, 24 h
measured_attribute: EC50 (nM)
Give just the number in nM; leave the unit off.

A selection of reference data follows.
{"smiles_text": "CCc1cccc2c1N(C)Cc1cc(OCc3cc(C)n(C)n3)c(OCc3cc(C)n(C)n3)cc1-2", "test_target": "Porcine epidemic diarrhea virus", "unit_of_measure": "nM", "EC50": 720}
{"smiles_text": "CCc1cccc2c1N(C)Cc1cc(OC(C)=O)c(OC(C)=O)cc1-2", "test_target": "Porcine epidemic diarrhea virus", "unit_of_measure": "nM", "EC50": 3260}

# input for lookup
Report EC50, nothing else, for this compound: CCc1cccc2c1N(C)Cc1cc(OC)c(OC)cc1-2
1890

These measurements were taken from ChEMBL document CHEMBL4811237.
